Listing of recorded Kd by entry.
target: M. tuberculosis MmpL3 (MtMmpL3) (Mycobacterium tuberculosis, UniProt P9WJV5); assay: Surface plasmon resonance binding to MmpL3; conditions: read-out: KD, 1:1 model; 1:1 binding model; from ratio of rate constants
Sequence (P9WJV5 whole entry): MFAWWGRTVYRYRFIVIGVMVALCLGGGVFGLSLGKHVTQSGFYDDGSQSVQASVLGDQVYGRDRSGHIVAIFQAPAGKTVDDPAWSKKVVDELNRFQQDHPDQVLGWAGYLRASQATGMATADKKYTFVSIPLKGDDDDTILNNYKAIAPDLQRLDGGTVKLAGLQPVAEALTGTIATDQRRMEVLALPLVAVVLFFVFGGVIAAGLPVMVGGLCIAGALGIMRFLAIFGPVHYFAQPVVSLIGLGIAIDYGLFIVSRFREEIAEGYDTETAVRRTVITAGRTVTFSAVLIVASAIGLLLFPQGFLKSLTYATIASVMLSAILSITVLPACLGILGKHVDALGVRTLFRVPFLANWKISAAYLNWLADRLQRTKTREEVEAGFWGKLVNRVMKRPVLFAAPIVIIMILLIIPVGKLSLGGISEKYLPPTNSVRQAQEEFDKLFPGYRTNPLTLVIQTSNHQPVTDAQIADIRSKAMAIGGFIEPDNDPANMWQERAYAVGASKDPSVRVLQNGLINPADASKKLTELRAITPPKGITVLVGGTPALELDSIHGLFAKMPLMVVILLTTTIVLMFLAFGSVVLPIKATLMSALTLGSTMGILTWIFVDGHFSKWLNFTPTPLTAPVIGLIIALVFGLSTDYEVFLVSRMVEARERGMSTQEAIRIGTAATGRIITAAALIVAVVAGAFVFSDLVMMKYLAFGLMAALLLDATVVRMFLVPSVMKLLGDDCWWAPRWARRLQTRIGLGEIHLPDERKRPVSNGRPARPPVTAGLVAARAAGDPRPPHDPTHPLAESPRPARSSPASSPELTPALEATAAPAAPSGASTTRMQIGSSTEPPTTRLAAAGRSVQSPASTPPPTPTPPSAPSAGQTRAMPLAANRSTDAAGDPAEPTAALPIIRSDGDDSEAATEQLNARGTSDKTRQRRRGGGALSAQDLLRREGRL
Response body: numeric value in µM, unit text excluded.

Consider the following illustrative entries.
CC(C)=CCCC(C)=CCNCCNC1(c2ccccc2)C2CC3CC(C2)CC1C3 (centres unmarked) :: 115
CC(C)=CCCC(C)=CCNCCNC1(C)C2CC3CC(C2)CC1C3 (centres unmarked) :: 188
CCCCCCC1(NCCNCC=C(C)CCC=C(C)C)C2CC3CC(C2)CC1C3 (centres unmarked) :: 67
CC(C)=CCCC(C)=CCNCCNC1(Cc2ccccc2)C2CC3CC(C2)CC1C3 (centres unmarked) :: 69
CCCC1(NCCNCC=C(C)CCC=C(C)C)C2CC3CC(C2)CC1C3 (centres unmarked) :: 91

Observed Kd, M. tuberculosis MmpL3 (MtMmpL3) (Mycobacterium tuberculosis, UniProt P9WJV5), CC(C)=CCCC(C)=CCNCCNC1(c2ncc(-c3ccccc3)s2)C2CC3CC(C2)CC1C3 (centres unmarked) : 87

Observed Kd, M. tuberculosis MmpL3 (MtMmpL3) (Mycobacterium tuberculosis, UniProt P9WJV5), CCCCC1(NCCNCC=C(C)CCC=C(C)C)C2CC3CC(C2)CC1C3 (centres unmarked) : 97

Observed Kd, M. tuberculosis MmpL3 (MtMmpL3) (Mycobacterium tuberculosis, UniProt P9WJV5), CC(C)=CCCC(C)=CCNCCNC(C)(C)C12CC3CC(CC(C3)C1)C2 : 106
